Attribution: patent US20210238162A1

Molecular target: haematopoietic prostaglandin D synthase (H-PGDS) (Homo sapiens, UniProt O60760)
Construct: Full length human H-PGDS cDNA (Invitrogen Ultimate ORF IOH13026) was amplified by PCR; made in house; host or cells: E. coli BL21 (DE3*), vector pET22b+
Sequence (O60760 whole entry): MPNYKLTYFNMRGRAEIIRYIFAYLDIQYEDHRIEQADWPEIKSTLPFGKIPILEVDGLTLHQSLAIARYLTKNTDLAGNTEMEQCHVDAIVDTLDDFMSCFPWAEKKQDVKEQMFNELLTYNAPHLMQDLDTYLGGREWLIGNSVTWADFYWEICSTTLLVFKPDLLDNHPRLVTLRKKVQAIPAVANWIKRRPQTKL
Assay: H-PGDS RapidFire High Throughput Mass Spectrometry Assay
Format: biochemical
Conditions: H-PGDS RapidFire MS assay, mean pIC50; read-out: Potency Range (mean pIC50) (converted)
From the text: The H-PGDS RapidFire™ mass spectrometric assay monitors conversion of prostaglandin H2 (PGH2) to prostaglandin D2 (PGD2) by haematopoietic prostaglandin D synthase (H-PGDS). […] Plates are then read on the RapidFire™ high throughput solid phase extraction system (Agilent) which incorporates a solid phase extraction step coupled to a triple quadrupole mass spectrometer (AB SCIEX). […]
Counter-ions that a name gives are not always drawn.
experimental-readout: IC50

- compound: "CC(C)(O)[C@H]1CC[C@H](NC(=O)c2cnc3cc(C4CCC4)ccc3c2)CC1"
  experimental-readout: "IC50"
  measured-value: "10 to 79.4 nM"
- compound: "NS(=O)(=O)O[C@H]1CC[C@H](NC(=O)c2cnc3cc(OC(F)F)c(Cl)cc3c2)CC1"
  experimental-readout: "IC50"
  measured-value: "< 10 nM"
- compound: "O=C(N[C@H]1CC[C@@](O)(C(F)F)CC1)c1cnc2cc(OC(F)F)c(Cl)cc2c1"
  experimental-readout: "IC50"
  measured-value: "10 to 79.4 nM"
- compound: "C[N+](C)([O-])[C@H]1CC[C@H](NC(=O)c2cnc3cc(OC(F)F)c(Cl)cc3c2)CC1"
  experimental-readout: "IC50"
  measured-value: "10 to 79.4 nM"
- compound: "CC[C@]1(O)CC[C@H](NC(=O)c2cnc3cc(OC(F)F)c(F)cc3c2)CC1"
  experimental-readout: "IC50"
  measured-value: "10 to 79.4 nM"
- compound: "O=C(N[C@H]1CCNC1=O)c1cnc2cc(N3CCC3)c(Cl)cc2c1 [Example 166, trifluoroacetic Acid Salt]"
  experimental-readout: "IC50"
  measured-value: "< 10 nM"
- compound: "CC(C)(O)[C@H]1CC[C@H](NC(=O)c2cnc3cc(NC4CC4)c(Cl)cc3c2)CC1"
  experimental-readout: "IC50"
  measured-value: "< 10 nM"
- compound: "CC(C)(O)[C@H]1CC[C@H](NC(=O)c2cnc3cc([S+]([O-])C(F)F)c(F)cc3c2)CC1 (some centres unmarked)"
  experimental-readout: "IC50"
  measured-value: "10 to 79.4 nM"
